# tgt: HLA-A2.1 molecules expressed by 174CEM.T2 cells (human)
# test: T2 HLA-A2.1 stabilisation, flow cytometry (BB7.2), peptide 200 ug/ml
endpointLabel: FI (Fluorescence Index)

Problem: Reported FI (Fluorescence Index), binder LCTELQTTI (modifications not checked) [… (residues 22-30 of HPV16 protein E6)] : ____
Result: 0.7

Problem: Given the entry GTLGIVCPI (modifications not checked) [… (residues 85-93 of HPV16 protein E7)] , report its measured FI (Fluorescence Index).
Result: 2.3

Problem: Record request: FI (Fluorescence Index) value, item TIHDIILEC (modifications not checked) [… (residues 29-37 of HPV16 protein E6)]
Result: 1.8

Problem: Can you share its FI (Fluorescence Index)? I mean this binder: LTNTGLYNL (modifications not checked) [… (residues 93-101 of HPV18 protein E6)]
Result: 1.5
